# target or test system: GalNAc3S(b1-4)GlcNAc
# assay comment: glycan array binding signal (z-score within array); higher = stronger binding
# study conditions: glycan notation: IUPAC condensed, linker removed
This is one part of a sample in which the strongest signals are shown more often than they occur.
attribute measured: glycan array binding signal (z-score)
Kindly provide the number alone.

In: I have this binder here, FGFR2-Fc (protein) MVNVTDAISSGDDEDDTDGAEDFVSENSNNKRAPYWTNTEKMEKRLHAVPAANTVKFRCPAGGNPMPTMRWLKNGKEFKQEHRIGGYKVRNQHWSLIMESVVPSDKGNYTCVVENEYGSINHTYHLDVVERSPHRPILQAGLPANASTVVGGDVEFVCKVYSDAQPHIQWIKHVEKNGSKYGPDGLPYLKVLKHSGINSSNAEVLALFNVTEADAGEYICKVSNYIGQANQSAWLTVLPKQQAPGREKEITASPDYLETRPLEQKLISEEDLAANDILDYKDDDDKV , and I need its recorded glycan array binding signal (z-score).
Out: -0.098
